Assay overview: Transport of AGE mixture across Caco-2 cell layer (transwell, apical to basolateral)
Type: in vitro ADME, Human
Run conditions: human, Caco-2, 4 °C; mixture, each AGE 100 μmol/L; 2 h; read-out: percentage of the amount added at the apical side at t = 0: recovery
Quantity name: recovery at 2 h, 100 μmol/L (%)

Compound	Val
N[C@@H](CCCCNCC(=O)O)C(=O)O	90
CC(NCCCC[C@H](N)C(=O)O)C(=O)O (stereo partly shown)	89.1
CC1NC(NCCC[C@H](N)C(=O)O)=NC1=O (stereo partly shown) [MG-H1, methylglyoxal–hydroimidazolone]	89.7
N[C@@H](CCCC[n+]1cccc2[nH]c(NCCC[C@H](N)C(=O)O)nc21)C(=O)O	83.3

---

System: Caco-2 cell layer
Assay overview: Transport of AGE mixture across Caco-2 cell layer (transwell, apical to basolateral)
Format: in vitro ADME, Human
Run conditions: 4 °C; mixture, each AGE 100 μmol/L; 2 h
Marks after values point to notes of the source that are not given here.
Quantity name: percentage of the amount added at the apical side at t = 0: apical side

Compound	Measured target	Val
N[C@@H](CCCCn1cc[n+](CCCC[C@H](N)C(=O)O)c1)C(=O)O	Caco-2 cell layer	89.6 ± 13.2 ^b %
N[C@@H](CCCCNC(=O)CO)C(=O)O [GALA, glycolic acid–lysine–amide]	Caco-2 cell layer	89.1 ± 4.5 ^a %
N[C@@H](CCCCn1c(C=O)ccc1CO)C(=O)O	Caco-2 cell layer	86.9 ± 6.0 ^a %
CC1NC(NCCC[C@H](N)C(=O)O)=NC1=O (stereo partly shown) [MG-H1, methylglyoxal–hydroimidazolone]	Caco-2 cell layer	89.7 ± 5.5 ^a %

---

Assay overview: Transport of AGE mixture across Caco-2 cell layer (transwell, apical to basolateral)
Type: in vitro ADME, Human
Run conditions: human, Caco-2, 4 °C; mixture, each AGE 100 μmol/L; data from 120 min
Lab note: compare Papp at 120 min, 100 μmol/L against 0.07 ×10⁻⁶ cm/s. Equal or greater, write satisfied. Smaller, write not satisfied.

Molecule	Classification
CC1NC(NCCC[C@H](N)C(=O)O)=NC1=O (some centres unmarked) [MG-H1, methylglyoxal–hydroimidazolone]	satisfied
CC(NCCCC[C@H](N)C(=O)O)C(=O)O (some centres unmarked)	satisfied
Cc1c[n+](CCCC[C@H](N)C(=O)O)cn1CCCC[C@H](N)C(=O)O	not satisfied
N[C@@H](CCCC[n+]1cccc2[nH]c(NCCC[C@H](N)C(=O)O)nc21)C(=O)O	not satisfied
N[C@@H](CCCCNCC(=O)O)C(=O)O	satisfied
Cc1nc(NCCC[C@H](N)C(=O)O)nc(C)c1O	satisfied
N[C@@H](CCCCNC(=O)CO)C(=O)O [GALA, glycolic acid–lysine–amide]	satisfied

---

System: Caco-2 cell monolayer
Assay overview: Accumulation of AGEs in the Caco-2 cell monolayer after transport experiment
Assay type: in vitro ADME, Human
Run conditions: standard treatment; mixture, each AGE 100 μmol/L; 2 h
Protocol: After the transport experiment, the cell monolayer on the inset membrane was washed three times with HBSS and three times with PBS. […] The samples were subsequently centrifuged at 16 000g for 20 min at 4 °C, and the supernatant was collected for further analysis by LC-MS. The analytical column was maintained at 40 °C throughout the quantification process. […]
Marks after values point to notes of the source that are not given here.
Quantity name: percentage of the amount added at the apical side at t = 0: accumulation (intracellular)

Compound	Val
N[C@@H](CCCCn1c(C=O)ccc1CO)C(=O)O	0.1 ± 0.1 ^a %
CC(NCCCC[C@H](N)C(=O)O)C(=O)O (some centres unmarked)	1.1 ± 0.2 ^a %
CC1NC(NCCC[C@H](N)C(=O)O)=NC1=O (some centres unmarked) [MG-H1, methylglyoxal–hydroimidazolone]	0.3 ± 0.1 ^a %
N[C@@H](CCCCNC(=O)CO)C(=O)O [GALA, glycolic acid–lysine–amide]	0.2 ± 0.1 ^a %
Cc1nc(NCCC[C@H](N)C(=O)O)nc(C)c1O	0.2 ± 0.2 ^b %
